pIC50 for UniProt:Q02156, merged from several publications.
pIC50: −log10 of the molar value.

{"compound": "Cn1cccc1-c1cnc(=O)[nH]c1NC(=O)c1nc(Br)cnc1N", "pIC50": "5.00 to 6.00"}
{"compound": "NC(=O)c1cccc(-c2cnc(N)c(C(=O)Nc3ccccc3N3CCC(N)CC3)n2)c1", "pIC50": "> 6.00"}
{"compound": "Nc1ccc(-c2ccccc2Cl)nc1C(=O)Nc1cnccc1N1CCC[C@H](N)C1", "pIC50": "5.00 to 6.00"}
{"compound": "Nc1ncc(-c2ccccc2)nc1C(=O)Nc1cc(C(=O)c2ccccc2)ccc1N1CCCC(N)C1 (stereo not shown)", "pIC50": "4.60 to 5.00"}
{"compound": "Nc1nccnc1C(=O)Nc1cnccc1N1CCC(N)CC1", "pIC50": "> 6.00"}
{"compound": "NC[C@H]1CCCN1c1ccncc1NC(=O)c1nccnc1N", "pIC50": "< 4.60"}
{"compound": "COc1cc(Nc2ncc(C#N)c(NC3CC(C)(C)N(C)C(C)(C)C3)n2)cc(OC)c1", "pIC50": 7.56}
{"compound": "Nc1cnc(C(=O)Nc2cnccc2N2CCCCC2)c(N)n1", "pIC50": "4.60 to 5.00"}
{"compound": "COc1ccc(Nc2ncc(F)c(NC3CC(C)(C)N(C)C(C)(C)C3)n2)cc1OC(F)F", "pIC50": 7.26}
{"compound": "Cc1ccc(Nc2ncc(F)c(NC3CC(C)(C)NC(C)(C)C3)n2)cc1-n1cnnn1", "pIC50": 8.10}
{"compound": "CN1C(C)(C)CC(Nc2nc(Nc3cc(OCC(F)(F)F)cc(OCC(F)(F)F)c3)ncc2F)CC1(C)C", "pIC50": 7.37}
{"compound": "Nc1nccnc1C(=O)Nc1[nH]c(=O)ncc1N1CCCC(N)C1 (stereo not shown)", "pIC50": "> 6.00"}
{"compound": "Cc1ccccc1-c1cnc(N)c(C(=O)Nc2[nH]c(=O)ncc2N2CCCC(N)C2)n1 (stereo not shown)", "pIC50": "5.00 to 6.00"}
{"compound": "CCN1CCN(c2ccc(Nc3ncc(F)c(NC4CC(C)(C)N(C)C(C)(C)C4)n3)cc2Cl)CC1", "pIC50": 7.87}
{"compound": "Nc1nccnc1C(=O)Nc1cnccc1N1CCC2(CC1)OCCO2", "pIC50": "5.00 to 6.00"}
{"compound": "Nc1cccnc1C(=O)Nc1[nH]c(=O)ncc1N1CCCC(N)C1 (stereo not shown)", "pIC50": "< 4.60"}
{"compound": "COc1cc(Nc2ncc(C(F)(F)F)c(NC3CC(C)(C)N(C)C(C)(C)C3)n2)cc(-n2cnnn2)c1", "pIC50": 7.37}
{"compound": "CCCN1CCN(c2ccc(Nc3ncc(F)c(NC4CC(C)(C)N(C)C(C)(C)C4)n3)cc2C(F)(F)F)CC1", "pIC50": 7.17}
{"compound": "Nc1nccnc1C(=O)Nc1cnccc1C1=CCCCC1", "pIC50": "> 6.00"}
{"compound": "Nc1nccnc1C(=O)Nc1[nH]c(=O)ncc1N1CCC(F)(F)CC1", "pIC50": "5.00 to 6.00"}
{"compound": "COc1ncc(-c2cnc(N)c(C(=O)Nc3ccccc3N3CCNCC3)n2)cn1", "pIC50": "5.00 to 6.00"}
{"compound": "CN1C(C)(C)CC(Nc2nc(Nc3ccc(N4CCN(S(C)(=O)=O)CC4)c(Cl)c3)ncc2C#N)CC1(C)C", "pIC50": 6.66}
{"compound": "COc1cc(Nc2ncc(Cl)c(NC3CC(C)(C)N(C)C(C)(C)C3)n2)cc(OC)c1", "pIC50": 7.81}
{"compound": "CC1Oc2ccc(Nc3ncc(F)c(NC4CC(C)(C)N(C)C(C)(C)C4)n3)cc2-n2nnnc21 (stereo not shown)", "pIC50": "> 6.60"}
{"compound": "Nc1nccnc1C(=O)Nc1cc(Cl)ccc1N1CCC(N)CC1", "pIC50": "> 6.00"}
{"compound": "CN1C(C)(C)CC(Nc2nc(Nc3ccc4c(c3)-n3nnnc3CO4)ncc2F)CC1(C)C", "pIC50": "> 6.60"}
{"compound": "CN1C(C)(C)CC(Nc2nc(Nc3cc(Cl)cc(Cl)c3)ncc2F)CC1(C)C", "pIC50": 6.38}
{"compound": "Cc1cnc(N)c(C(=O)Nc2ccccc2N2CCC(N)CC2)n1", "pIC50": "> 6.00"}
{"compound": "Nc1nccnc1C(=O)Nc1cnccc1N1CCCCC1", "pIC50": "> 6.00"}
{"compound": "Cn1cccc1-c1cnc(=O)[nH]c1NC(=O)c1nccnc1N", "pIC50": "> 6.00"}
{"compound": "COc1ccc(Nc2ncc(C#N)c(NC3CC(C)(C)N(C)C(C)(C)C3)n2)cc1Cl", "pIC50": 6.68}
{"compound": "Nc1nccnc1C(=O)Nc1cnccc1N1CCC(N)C1 (stereo not shown)", "pIC50": "< 4.60"}
{"compound": "CN1C(C)(C)CC(Nc2nc(Nc3cccc(-n4cnnn4)c3)ncc2F)CC1(C)C", "pIC50": 8.15}
{"compound": "COc1cc(Nc2ncc(C#N)c(NC3CC(C)(C)N(C)C(C)(C)C3)n2)cc(-n2nnnc2C)c1", "pIC50": 8.13}
